These entries and their values trace back to paper PMC5668067.

- Assay Notes: phase I pharmacokinetics in blood (dried blood spot, LC-MS/MS, noncompartmental analysis)
- Type: in vivo, human
- Measurement Conditions: human, whole blood (dried blood spot), intravenous, 340 mg/m2, 340 mg/m^2, cycle 1 Day 1, N = 2, mean; read-out: CL (converted)
Assay Endpoint: clearance (mL/min)
Report only the number, with the unit mL/min understood.

Documented clearance of O=C(NCCN1CCOCC1)Nc1nc2ccc(Sc3nnc4ccc(-c5ccc(F)cc5)nn34)cc2s1 [SAR125844] : 565

----------
- Assay Notes: phase I pharmacokinetics in blood (dried blood spot, LC-MS/MS, noncompartmental analysis)
- Assay type: in vivo, human
- Measurement Conditions: human, whole blood (dried blood spot), intravenous, 440 mg/m2, 440 mg/m^2, cycle 1 Day 1, n = 2, mean; read-out: t1/2z (converted)
- Protocol: Blood samples for pharmacokinetic analysis were acquired using dried blood-spot technology on days 1 and 22 of cycle 1 at several time points before, during, and after infusion (up to 168 hours after administration). Drug concentrations were determined by a validated method of liquid chromatography and tandem mass spectrometry (limit of quantification 2 ng/mL). […]
Assay Endpoint: half-life (h)
Give a bare numeral; the unit h is implied.

Briefly, half-life measured for O=C(NCCN1CCOCC1)Nc1nc2ccc(Sc3nnc4ccc(-c5ccc(F)cc5)nn34)cc2s1 [SAR125844] : 12.1

----------
- Assay Notes: phase I pharmacokinetics in blood (dried blood spot, LC-MS/MS, noncompartmental analysis)
- Format: in vivo, human
- Measurement Conditions: human, whole blood (dried blood spot), intravenous, 570 mg/m2, 570 mg/m^2, cycle 1 Day 22, N = 17, mean ± SD; read-out: Vss
- Protocol: Blood samples for pharmacokinetic analysis were acquired using dried blood-spot technology on days 1 and 22 of cycle 1 at several time points before, during, and after infusion (up to 168 hours after administration). Drug concentrations were determined by a validated method of liquid chromatography and tandem mass spectrometry (limit of quantification 2 ng/mL). […]
Assay Endpoint: Vd (L)
Only the number, expressed in L, is required.

Sure, the documented Vd for O=C(NCCN1CCOCC1)Nc1nc2ccc(Sc3nnc4ccc(-c5ccc(F)cc5)nn34)cc2s1 is 287

----------
- Assay Notes: phase I pharmacokinetics in blood (dried blood spot, LC-MS/MS, noncompartmental analysis)
- Assay type: in vivo, human
- Measurement Conditions: human, whole blood (dried blood spot), intravenous, 340 mg/m2, 340 mg/m^2, cycle 1 Day 1, N = 2, mean; read-out: Vss
- Procedure: Blood samples for pharmacokinetic analysis were acquired using dried blood-spot technology on days 1 and 22 of cycle 1 at several time points before, during, and after infusion (up to 168 hours after administration). Drug concentrations were determined by a validated method of liquid chromatography and tandem mass spectrometry (limit of quantification 2 ng/mL). […]
Assay Endpoint: Vd (L)
A number alone suffices; assume L.

Vd for O=C(NCCN1CCOCC1)Nc1nc2ccc(Sc3nnc4ccc(-c5ccc(F)cc5)nn34)cc2s1 is 246

----------
- Assay Notes: phase I pharmacokinetics in blood (dried blood spot, LC-MS/MS, noncompartmental analysis)
- Assay type: in vivo, human
- Measurement Conditions: human, whole blood (dried blood spot), intravenous, 440 mg/m2, 440 mg/m^2, cycle 1 Day 22, N = 3, mean ± SD; read-out: Vss
- Experimental: Blood samples for pharmacokinetic analysis were acquired using dried blood-spot technology on days 1 and 22 of cycle 1 at several time points before, during, and after infusion (up to 168 hours after administration). Drug concentrations were determined by a validated method of liquid chromatography and tandem mass spectrometry (limit of quantification 2 ng/mL). […]
Assay Endpoint: Vd (L)
Give your result in L as a bare value.

Kindly note the recorded Vd for O=C(NCCN1CCOCC1)Nc1nc2ccc(Sc3nnc4ccc(-c5ccc(F)cc5)nn34)cc2s1 , which is 490
